growth listing for selected compounds.
- Test system: OVCAR-4 ovarian
- measurement-protocol: NCI-60 one-dose screen, 48 h (100 = growth as untreated, 0 = no growth, -100 = all killed)
- condition: 10 µM unless noted
About 83,000 compounds went through this panel and 20% of them were active in at least one assay; those are over-represented in the sample as a whole.
measured-property: growth (%)

{"columns": ["item-smiles", "measurement-units", "result-value"],
 "data": [
  ["O=c1c2cc(F)ccc2sc2c(NCCCNCCO)nc3ccc(F)cc3c12", "%", 41.5],
  ["CCCCCCNC(=O)Oc1ccc(/C(=C(\\C)c2ccc(Cl)cc2)c2ccc(OCCN3CCCCC3)cc2)cc1", "%", 36.7],
  ["N#Cc1cccc(NC(=O)c2cc(-c3ccc(F)cc3F)ccc2O)c1", "%", 22.1]
]}

###

- Tested on: NCI-H322M lung
- measurement-protocol: NCI-60 one-dose screen, 48 h (100 = growth as untreated, 0 = no growth, -100 = all killed)
- condition: 10 µM unless noted
This is part of a sample that, as a whole, favours compounds with a hit. Of some 83,000 tested, about 20% had one in any assay.
measured-property: growth (%)

{"columns": ["molecule", "result-value"],
 "data": [
  ["CCCCC[C@H](O)C/C=C1/C(=O)C=C[C@@H]1C/C=C\\CCCC(=O)O", 91.1],
  ["Nc1ccccc1-c1cc2c(c3c1[nH]c1ccccc13)CCCCC2", 99],
  ["COc1cccc(-c2nc(-c3ccc(NC(=O)c4ccccc4)cc3)[nH]c2-c2ccnc(Br)c2)c1", 41.2],
  ["CN(C(=O)NCc1cccc(F)c1Cl)[C@H](COC(=O)Nc1cc2ccccc2cn1)CC(O)CO (stereo not given in full)", 86.4],
  ["Cc1cccc2c3c(sc12)C(c1ccc(Cl)cc1)C(C#N)=C(N)O3 (stereo not given)", 49.1],
  ["COc1cc(C)c(Cc2cnc(N)nc2N)cc1OC", 103],
  ["Fc1cc2c(cc1Cl)N(c1ncnc3ccc(-c4cnc5cnccn45)cc13)CC2", 80.7],
  ["CC(=O)OC[C@H]1OC(Sc2sc(C(=O)c3ccc(C)cc3)c(N)c2-c2nc3ccccc3s2)[C@H](OC(C)=O)[C@@H](OC(C)=O)[C@@H]1OC(C)=O (stereo not given in full)", 81.3],
  ["COc1cc(C2CC(c3cccc(Br)c3)=NN2C(C)=O)cc(OC)c1OC (stereo not given)", 33],
  ["CCc1ccc(Oc2c(-c3ccc(OCc4ccc(Cl)cc4)cc3O)n[nH]c2C(F)(F)F)cc1", 35.3],
  ["OC(c1ccccc1)C(NC(Cc1ccccc1)c1ccccc1)c1ccccc1 (stereo not given)", 93.2],
  ["Clc1ccc2c(c1)N(CCCN1CCCC1)c1ccccc1S2", 36.3],
  ["COc1nc2ccccc2cc1-c1nc2c(cnn2-c2ccccc2)c(=O)[nH]1", 82.1],
  ["COc1cc(/C=C/c2c(C(C)=O)c(C)nc3ccccc23)cc(OC)c1OC", 51.3],
  ["CCc1cccc2c1S/C(=C/c1ccc(OC)cc1)C2=O", 86.7],
  ["c1ccc(CO[C@H]2CO[C@H]3[C@@H]2OC[C@@H]3Oc2ccc(Nc3ncnc4ccsc34)cc2)cc1", 93.1],
  ["NC1=C(c2nn[nH]n2)C(c2ccccc2Cl)c2ccc3ccccc3c2O1 (stereo not given)", 89.9],
  ["CCCCN(C)N=Nc1ccc(C(N)=O)cc1", 105],
  ["CSc1ncccc1C(=O)OCC(=O)Nc1oc(C)c2c(C)n[nH]c(=O)c12", 104],
  ["CCOC(=O)CC1C(COC(=O)NC)OC(n2cnc3c(NC(=O)Nc4ccccc4)ncnc32)C1O[Si](C)(C)C(C)(C)C (stereo not given)", 91.1],
  ["C=C(C)[C@@H]1CC[C@]2(N=C=O)CC[C@]3(C)[C@H](CC[C@@H]4[C@@]5(C)Cc6c([nH]c7ccccc67)C(C)(C)[C@@H]5CC[C@]43C)[C@@H]12", 88.4],
  ["COc1ccc(C(=O)n2nc(-c3ccccc3)nc2N)cc1OC", 89.1],
  ["C#C[C@]1(O)CC[C@H]2[C@@H]3CC=C4c5sc(Nc6cc(F)ccc6F)nc5CC[C@]4(C)[C@H]3CC[C@@]21C", 50.9],
  ["CCN(CC)S(=O)(=O)c1ccc(NC(=O)CSc2nnc(C)n2-c2ccccc2)cc1", 113],
  ["COc1nc2ccc(C)cc2cc1-c1nc2c(cnn2-c2ccc(Br)cc2)c(=O)[nH]1", 72.7],
  ["Cc1ccc(C2CC(c3ccc(Nc4ccnc5cc(Cl)ccc45)cc3)=NN2C=O)cc1 (stereo not given)", 87.8],
  ["CC(=O)N1N=C(c2ccc(Nc3nc(Nc4ccc(F)cc4)nc(Nc4ccc(Cl)cc4)n3)cc2)CC1c1ccc(Cl)cc1 (stereo not given)", 85.3],
  ["Cc1cc(=O)oc2cc(OC(=O)N3CCN(C)CC3)ccc12", 105],
  ["COc1cc(CCC[P+](c2ccccc2)(c2ccccc2)c2ccccc2)c(OC)c(OC)c1OC", 83.3],
  ["CCCCCCN(CCCCCC)c1ccc(/C=C2/SC(=O)NC2=O)c(C)c1", 87]
]}
